target: Serotonin 2 (5-HT2) receptor (Rattus norvegicus, UniProt P30994+P08909+P14842); assay: Inhibition of [3H]ketanserin binding at 5-hydroxytryptamine 2 receptor from rat frontal cortex.
Just a reminder that ties go to 0.0: only IC50 strictly below 5 nM counts as 1.0.

O=C1c2ccccc2C(=O)N1CCOCCN1CCN(c2nsc3ccccc23)CC1 = 0.0
O=C1c2ccccc2C(=O)N1CCN1CCN(c2nsc3ccccc23)CC1 = 0.0

Exam item: Is it true that IC50 reported for O=C1c2ccccc2C(=O)N1CC1CC1CN1CCN(c2nsc3ccccc23)CC1 (stereo not given) is less than 5 nM?
Marked response: 1.0

Exam item: Is it true that IC50 reported for O=C1c2ccccc2CN1C/C=C/CN1CCN(c2nsc3ccccc23)CC1 is less than 5 nM?
Marked response: 1.0

Exam item: Is it true that IC50 reported for O=C1c2ccccc2C(=O)N1CC#CCN1CCN(c2nsc3ccccc23)CC1 is less than 5 nM?
Marked response: 0.0

----------
target: 5-hydroxytryptamine receptor 1A (Rattus norvegicus)
Sequence (P19327 whole entry): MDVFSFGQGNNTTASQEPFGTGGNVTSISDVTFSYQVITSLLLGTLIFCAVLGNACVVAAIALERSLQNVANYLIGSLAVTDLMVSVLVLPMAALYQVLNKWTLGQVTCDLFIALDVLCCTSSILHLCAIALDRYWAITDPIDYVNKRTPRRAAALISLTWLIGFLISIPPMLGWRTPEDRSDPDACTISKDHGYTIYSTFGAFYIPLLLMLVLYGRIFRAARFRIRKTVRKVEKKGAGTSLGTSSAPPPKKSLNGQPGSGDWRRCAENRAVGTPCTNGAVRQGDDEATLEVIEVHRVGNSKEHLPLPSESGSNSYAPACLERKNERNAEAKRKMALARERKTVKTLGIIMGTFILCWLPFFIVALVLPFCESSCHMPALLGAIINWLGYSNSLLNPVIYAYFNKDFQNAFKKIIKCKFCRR
recorded_metric: pIC50
To interpret pIC50, take it as minus log10 of a concentration measured in moles per litre.

Below, each entry is followed by its recorded pIC50 result.
O=C1c2ccccc2C(=O)N1CCN1CCN(c2nsc3ccccc23)CC1 = 7.27
O=C1c2ccccc2C(=O)N1C/C=C/CN1CCN(c2nsc3ccccc23)CC1 = 8.33
O=C1c2ccccc2C(=O)N1CCCCCN1CCN(c2nsc3ccccc23)CC1 = 8.70

Exam item: // fetch 5-hydroxytryptamine receptor 1A (Rattus norvegicus) pIC50 for O=C1c2ccccc2C(=O)N1CCCN1CCN(c2nsc3ccccc23)CC1
Marked response: 7.89

Exam item: // fetch 5-hydroxytryptamine receptor 1A (Rattus norvegicus) pIC50 for O=C1c2ccccc2CN1C1CCC(N2CCN(c3nsc4ccccc34)CC2)CC1 (stereo unspecified)
Marked response: 6.85

Exam item: // fetch 5-hydroxytryptamine receptor 1A (Rattus norvegicus) pIC50 for O=C1c2ccccc2CN1CCCN1CCN(c2nsc3ccccc23)CC1
Marked response: 6.41

----------
molecular target: Serotonin 2 (5-HT2) receptor (Rattus norvegicus, UniProt P30994+P08909+P14842); experiment: Inhibition of [3H]ketanserin binding at 5-hydroxytryptamine 2 receptor from rat frontal cortex.
This section presents molecules with their documented IC50 values.
Please append the unit to your numeric answer.

Below, each entry is followed by its recorded IC50 result.
O=C1c2ccccc2CN1CCCCCN1CCN(c2nsc3ccccc23)CC1 = 2.2 nM
O=C1c2ccccc2C(=O)N1CCCCCN1CCN(c2nsc3ccccc23)CC1 = 1.8 nM
O=C1c2ccccc2CN1CC#CCN1CCN(c2nsc3ccccc23)CC1 = 18 nM
O=C1c2ccccc2CN1CCCN1CCN(c2nsc3ccccc23)CC1 = 13 nM
O=C1c2ccccc2CN1CCOCCN1CCN(c2nsc3ccccc23)CC1 = 1.7 nM
O=C1c2ccccc2CN1C1CCC(N2CCN(c3nsc4ccccc34)CC2)CC1 (stereo unspecified) = 120 nM
O=C1c2ccccc2CN1C/C=C\CN1CCN(c2nsc3ccccc23)CC1 = 5.5 nM
O=C1c2ccccc2CN1CCN1CCN(c2nsc3ccccc23)CC1 = 9.8 nM
O=C1c2ccccc2C(=O)N1C/C=C\CN1CCN(c2nsc3ccccc23)CC1 = 3.2 nM
O=C1c2ccccc2C(=O)N1C/C=C/CN1CCN(c2nsc3ccccc23)CC1 = 0.78 nM

Okay, next one:
Exam item: Consider the molecule shown here: O=C1c2ccccc2C(=O)N1CCCN1CCN(c2nsc3ccccc23)CC1 What is its recorded IC50?
Marked response: 6 nM
